System: NCI-H226 lung
Test: NCI-60 one-dose screen, 48 h
Conditions: 10 µM unless noted
Compounds without any hit were thinned out: in the full panel of roughly 83,000, 20% have a hit. The source made the active and inactive calls. How the source made its calls: active means growth percent below 10; inactive means the rest.
In this exercise, the only acceptable responses are True = active, False = inactive

Reference set, count: 3
{"compound": "COc1cc(N2CCC(N(C)C)CC2)ccc1Nc1ncc(Cl)c(Nc2ccccc2P(C)(C)=O)n1", "experimental_system": "NCI-H226 lung", "class_assignment": "True"}
{"compound": "COC(=O)CC[C@@H](C)[C@H]1CC[C@H]2C3CC[C@@H]4C[C@@H]5CC[C@]4(C)[C@@]3(O5)[C@H](Br)[C@@H](Br)[C@]12C (some centres undefined)", "experimental_system": "NCI-H226 lung", "class_assignment": "False"}
{"compound": "Cc1cnc(NC(=O)Nc2cc(Br)c(C)cc2OC[C@@H]2CNCCO2)cn1", "experimental_system": "NCI-H226 lung", "class_assignment": "False"}

Field: next compound
Req: Assay result, entry "Cc1cc(Oc2ccccc2)ccc1Nc1ncnc2ccc(-c3cnc(Cl)c(NS(C)(=O)=O)c3)cc12" — outcome?
Resp: False
